Where do the numbers come from? From patent US20030207877A1.

Target: HCMV polymerase (Human cytomegalovirus, UniProt P08546)
Sequence (P08546 whole entry): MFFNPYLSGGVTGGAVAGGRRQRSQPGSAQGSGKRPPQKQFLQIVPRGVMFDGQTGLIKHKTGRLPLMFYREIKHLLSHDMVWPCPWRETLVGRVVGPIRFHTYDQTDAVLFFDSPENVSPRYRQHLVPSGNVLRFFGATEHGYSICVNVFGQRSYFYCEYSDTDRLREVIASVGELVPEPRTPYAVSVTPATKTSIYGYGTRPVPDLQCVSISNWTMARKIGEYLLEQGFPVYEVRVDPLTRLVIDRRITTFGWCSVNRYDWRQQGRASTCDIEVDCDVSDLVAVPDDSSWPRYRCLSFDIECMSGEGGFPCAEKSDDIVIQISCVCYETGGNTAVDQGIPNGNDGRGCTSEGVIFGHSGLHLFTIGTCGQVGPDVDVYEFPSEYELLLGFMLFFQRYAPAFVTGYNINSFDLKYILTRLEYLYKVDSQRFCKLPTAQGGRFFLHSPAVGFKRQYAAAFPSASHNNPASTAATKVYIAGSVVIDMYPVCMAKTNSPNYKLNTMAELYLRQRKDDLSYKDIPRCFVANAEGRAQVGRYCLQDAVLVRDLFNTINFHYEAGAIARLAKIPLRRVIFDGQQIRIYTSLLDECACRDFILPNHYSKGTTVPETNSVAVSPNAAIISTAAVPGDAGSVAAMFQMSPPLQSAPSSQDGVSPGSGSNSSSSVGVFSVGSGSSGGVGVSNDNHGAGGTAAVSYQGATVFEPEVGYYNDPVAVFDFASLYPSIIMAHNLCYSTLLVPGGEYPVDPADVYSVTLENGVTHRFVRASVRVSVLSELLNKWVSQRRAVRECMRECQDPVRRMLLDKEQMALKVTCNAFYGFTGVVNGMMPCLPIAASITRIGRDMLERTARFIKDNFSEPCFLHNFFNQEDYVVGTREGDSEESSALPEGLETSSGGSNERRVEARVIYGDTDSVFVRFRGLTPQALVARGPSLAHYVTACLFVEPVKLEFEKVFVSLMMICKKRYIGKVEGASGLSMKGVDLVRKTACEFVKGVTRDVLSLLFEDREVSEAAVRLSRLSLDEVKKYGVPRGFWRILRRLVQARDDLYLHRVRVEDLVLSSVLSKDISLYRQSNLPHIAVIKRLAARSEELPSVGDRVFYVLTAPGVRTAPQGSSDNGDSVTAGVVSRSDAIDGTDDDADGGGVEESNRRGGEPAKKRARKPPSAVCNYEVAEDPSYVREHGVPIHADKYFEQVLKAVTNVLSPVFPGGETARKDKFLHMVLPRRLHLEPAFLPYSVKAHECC
Test: HCMV polymerase assay (scintillation proximity assay), original and modified version
Settings: SPA; several values per example = repeat determinations, assay version not given; read-out: CMV Polymerase IC50
Measure Name: IC50 (nM)

Completed entries (count: 5):
| Compound | Unit Info | IC50 |
| --- | --- | --- |
| CN(Cc1cc2c3c(c1)c(=O)c(C(=O)NCc1ccc(F)cc1)cn3CC(=O)N2C)C[C@@H](O)c1nccs1 | nM | 2080 |
| CN(Cc1cc2c3c(c1)c(=O)c(C(=O)NCc1ccc(F)cc1)cn3CC(=O)N2C)C[C@@H](O)c1cccs1 | nM | 580 |
| CN(Cc1cc2c3c(c1)c(=O)c(C(=O)NCc1ccc(F)cc1)cn3CC(=O)N2C)C[C@@H](O)c1ccccn1 | nM | 1870 |
| CN(Cc1cc2c3c(c1)c(=O)c(C(=O)NCc1ccc(Cl)cc1)cn3CC(=O)N2C)C[C@H](O)c1cc2ccccc2o1 | nM | 180 |
| CN(Cc1cc2c3c(c1)c(=O)c(C(=O)NCc1ccc(Cl)cc1)cn3CC(=O)N2CCO)C[C@@H](O)c1ccco1 | nM | 2890 |

A: CN(Cc1cc2c3c(c1)c(=O)c(C(=O)NCc1ccc(F)cc1)cn3CC(=O)N2C)C[C@@H](O)c1ccccc1
B: Cc1cc(C(O)CN(C)Cc2cc3c4c(c2)c(=O)c(C(=O)NCc2ccc(Cl)cc2)cn4CC(=O)N3C)c(C)o1 (racemic)
-- ask Given the listed records, identify the one among A and B with higher IC50. Lab log: write the label of the selected item as the result.
-- reply A
